Assay: amyloid nucleation score (Sup35N fusion, yeast selection) (log enrichment); library NNK3; higher = more nucleation; inactive = no reads after selection;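 note: zero at mode of non-aggregating sequences after 7 days selection at 30°C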
measure: amyloid nucleation score

RLYLNSFSHQNSCPRDLDGL
0.969
FYLKLMSLVMSMDIMLTSLC
inactive
YAEPYRRDVPGSCEYLTMM
inactive
TNLWFKNLSMFMGIVSLART
inactive

* * *

Assay: amyloid nucleation score (Sup35N fusion, yeast selection) (log enrichment); library NNK3; higher = more nucleation; inactive = no reads after selection
measure: amyloid nucleation score

FCFIHIFNHNSRTNF
inactive
LCNWRAVDCDD
-0.151
DIERGFGDSCKNGHFAVGSV
-0.629
TFRTTGM
inactive
IEQGGI
inactive

Item `RSVVVLT` has what recorded amyloid nucleation score? inactive

For `RLHLRKYFFETAHWICMNDG` , what is its reported amyloid nucleation score? inactive

Return reported amyloid nucleation score; argument: `NDVSRNLSMFNY` inactive

Quick check: amyloid nucleation score of `SYGKTFAMSYVW` ? inactive

Dear colleague, I am looking for the recorded amyloid nucleation score of the following substance: `TNDTLFFVTSLVADPVERIS` inactive
